molecular target: T1, CD137-hisFc fusion protein (Sino Biological Cat 10041-H03H) (human, UniProt Q07011 24-186); assay: BLI Octet, Fab
T1 construct: Bought; also called recombinant human CD137 (fused with human Fc and His tag); not shown: His tag and human Fc
ENDPOINT_LABEL: pKd
Please keep in mind that pKd is minus log10 of the molar concentration; only the number is needed.

Some solved entries appear below for comparison.
>>> value_measured("Fab 7100 (Fab, V domains shown, Fab from E. coli; also called VH50/VL50) VH: EVQLVESGGGLVQPGGSLRLSCAASGFSLSTSGVGVGWIRQAPGKGLEWVSYISGDGGSTYYADSVKGRFTISRDNSKNTLYLQLNSLRAEDTAVYYCAREGSDTVLGDWFAYWGQGTLVTVSS VL: DIQLTQSPSSLSASVGDRVTITCRASQGISSYLAWYQQKPGKAPKLLIYDASNLETGVPSRFSGSGSGTDFTLTISSLQPEDFATYYCQQYYSTPLTFGQGTKVEIKR")
7.46
>>> value_measured("Fab 5360 (Fab, V domains shown, Fab from E. coli; also called VH28/VL28) VH: EVQLVESGGGLVQPGGSLRLSCAASGYSITSGHYWNWIRQAPGKGLEWVSGISGDGSSTYYADSVKGRFTISRDNSKNTLYLQLNSLRAEDTAVYYCARGGSDAVLGDWFAYWGQGTLVTVSS VL: DIQLTQSPSSLSASVGDRVTITCRASQSISSYLAWYQQKPGKAPKLLIYDASNLETGVPSRFSGSGSGTDFTLTISSLQPEDFATYYCQQGYSTWTFGQGTKVEIKR")
7.62
>>> value_measured("Fab 7159 (Fab, V domains shown, Fab from E. coli; also called VH58/VL58) VH: EVQLVESGGGLVQPGGSLRLSCAASGFSLSTSGVGVGWIRQAPGKGLEWIGDIYHSGSTYYNPSLKSRVTISRDNSKNTLYLQLNSLRAEDTAVYYCAREGSTAVLGDWFAYWGQGTLVTVSS VL: DIQLTQSPSSLSASVGDRVTITCRASQSISSYLNWYQQKPGKAPKLLIYAASTLQSGVPSRFSGSGSGTDFTLTISSLQPEDFATYYCQQYYSTPLTFGQGTKVEIKR")
7.42
>>> value_measured("Fab 4139 (Fab, V domains shown, Fab from E. coli; also called VH8/VL8) VH: EVQLVESGGGLVQPGGSLRLSCAASGYTFTGYAIHWVRQAPGKGLEWVSAISGDGGSTYYADSVKGRFTISRDNSKNTLYLQLNSLRAEDTAVYYCARGYRGYFDYWGQGTLVTVSS VL: DIQLTQSPSSLSASVGDRVTITCRASESVTSTYLAWYQQKPGKAPKLLIYDASNLETGVPSRFSGSGSGTDFTLTISSLQPEDFATYYCQQYSDWPPTFGQGTKVEIKR")
8.78

Consider the record given below.
Qu. So what's the measured pKd for this one? Fab 4074 (Fab, V domains shown, Fab from E. coli) VH: EVQLVESGGGLVQPGGSLRLSCAASGFSLSTGGVGVSWIRQAPGKGLEWVSSISGSGGTTYYADSVKGRFTISRDNSKNTLYLQLNSLRAEDTAVYYCARDDLYSWYFDVWGQGTLVTVSS VL: DIQLTQSPSSLSASVGDRVTITCRASQGIGSSLAWYQQKPGKAPKLLIYAASSLQSGVPSRFSGSGSGTDFTLTISSLQPEDFATYYCQQGYYTWTFGQGTKVEIKR
Ans. 7.71
